- protocol-summary: yeast display, Sf9 membrane polyspecificity reagent, FACS + sequencing; frameworks hold sequencing errors

chain-sequence	polyreactivity (PSR sort gate)
QVHLQESGGGLVQAGGSLRLSCEASGSISRYYDMVWYRQAPGKELEFVAGISGGAITYYADSVKGRFTISRDNAKNTVYLQMNSLKPEDTAVYYCAADTGVYQYHSYWGQGTQVTVSS	low polyreactivity
QVQLVESGGGLVQAGGSLRLSCAASGSTFEANAMGWYRQAPGKERELVAVITWTGGSTYYADSVKGRFTISRDNAKNTVYLQMNSLKPEDTAVYYCAADGVVPGRFFWPAHEYDYWGQGTQVTVSS	low polyreactivity
QVQLVESGGGLVQAGGSLRLSCAASGRIFTRYAMGWYRKEPGKERELVAAISYGGGGTYYADSVKGRFTISRDNAKNTVYLQMNSLKPEDTAVYYCATDDPLSQINEQGMDYWGQGTQVTVSS	low polyreactivity
QVQLVESGVGLVQAGGSLRLSCAASGLTFPWYTMGWNRQAPGKERELVAAINSRGGSTYYADSVKGRFTISRDNAKNTVYLQMNRLKPVDTAVYYCATRSFGRMDYWGQGTQVTVSS	high polyreactivity
QVQLQESGGGLVQAGGSMRLSCAASGSISELRPMGWYRQAPGKERELVAGISTGGSTNYADSVKGRFTISRDNAKNTVYLQMNSLKPEDTAVYYCAAALSNVRNVRSPYDYWGQGTQVTVSS	high polyreactivity
QVQLVESGGGLVQAGGSLRLSCAASGYILQINAMGWYRQAPGKERELVAAISISGGNTYYADSVKGRFTISRDNAKNTVYLQMNSLKPEDTAVYYCAAYRYYSYLVRYGLLLAYYYWGQGTQVTVSS	low polyreactivity
QVQLVESGGGLVQAGGSLRLSCAASGLIFRHYAMGWYRQAPGKERELVAAIDYSGGSTYYADSVKGRFTISRDNAKNTVYLQMNSQKPEDTAVYYCAADYFWMYYSEYGYWGQGTQVTVSS	low polyreactivity
